Source of measurements: patent US10765114B2

# Tested on: APESV (windgrass)
# assayProcedure: Post-Emergent Test III (Wheat and Barley)
# Format: in vivo, Apera spica-venti
# details: Apera spica-venti, post-emergence, 504 h; 140 g ai/ha, postemergence; read-out: Visual Growth Reduction (%) 21 Days After Application, APESV
Consider the following compounds and their measured pest or weed control at 140 g/ha readings.

Solved entries:
compound | resultType | obsValue
Nc1c(F)c(-c2ccc(C(F)(F)F)nc2)nc(C(=O)O)c1Cl [Compound 46] | pest or weed control at 140 g/ha | 85 to 94%
COC(=O)c1nc(-c2ccc(C3CC3)nc2)c(F)c(N)c1Cl [Compound 49] | pest or weed control at 140 g/ha | 85 to 94%
COC(=O)c1nc(-c2ccc(Cl)c(F)c2OC)c(F)c(N)c1Cl [Compound 39] | pest or weed control at 140 g/ha | 60 to 74%
COC(=O)c1nc(-c2ccc(Cl)c(F)c2C)cc(N)c1Cl [Compound 73] | pest or weed control at 140 g/ha | 85 to 94%

If you can, please state the reported pest or weed control at 140 g/ha value of COC(=O)c1nc(-c2ccc(Cl)c(F)c2OC)cc(N)c1Cl [Compound 20] .
75 to 84%

// same read-out, input: Nc1c(Cl)c(C(=O)O)nc(-c2ccc(C(F)(F)F)nc2)c1Cl [Compound 33]
60 to 74%

// same read-out, input: COC(=O)c1nc(-c2ccc(OC(F)F)nc2)c(F)c(N)c1Cl [Compound 71]
30 to 44%

// same read-out, input: Cc1c(-c2cc(N)c(Cl)c(C(=O)O)n2)ccc(Cl)c1F [Compound 52]
85 to 94%

// same read-out, input: Nc1c(F)c(-c2ccc(OC(F)F)nc2)nc(C(=O)O)c1Cl [Compound 66]
60 to 74%

* * *

# Tested on: ALOMY (blackgrass)
# assayProcedure: Post-Emergent Test III (Wheat and Barley)
# Type: in vivo, Alopecurus myosuroides
# details: effective dose for growth reduction of 50 percent, probit analysis
Consider the following compounds and their measured GR50, ALOMY readings.
Answer format: numeric, g ai/ha implied, no suffix.

Solved entries:
compound | GR50, ALOMY, g ai/ha
COC(=O)c1nc(-c2ccc(Cl)c(F)c2OC)cc(N)c1Cl [Compound 20] | 86
Nc1c(F)c(-c2ccc(OC(F)F)nc2)nc(C(=O)O)c1Cl [Compound 66] | 140
Nc1c(Cl)c(C(=O)O)nc(-c2ccc(C(F)(F)F)nc2)c1Cl [Compound 33] | 37
COC(=O)c1nc(-c2ccc(C(F)(F)F)nc2)c(Cl)c(N)c1Cl [Compound 83] | 25
COC(=O)c1nc(-c2ccc(C(F)(F)F)nc2)c(F)c(N)c1Cl [Compound 59] | 48

Below: the item to evaluate.
If you can, please state the reported GR50, ALOMY value of Nc1c(F)c(-c2ccc(C3CC3)nc2)nc(C(=O)O)c1Cl [Compound 36] .
126

* * *

# Test system: Key Grass and Sedge Weeds as well as Grass Crops
# assayProcedure: Post-Emergent Test II (Table 6)
# Assay type: in vivo
# details: post-emergence, 336 h, CYPSS, 70 g ai/ha, 14 days after application, read-out: Visual Growth Reduction (%) 14 Days After Application CYPSS
Consider the following compounds and their measured pest or weed control at 70 g/ha readings.

Solved entries:
givenSmiles | pest or weed control at 70 g/ha
Nc1c(F)c(-c2ccc(C(F)F)nc2)nc(C(=O)O)c1Cl | 95 to 100%
COC(=O)c1nc(-c2ccc(C(F)(F)F)nc2F)c(F)c(N)c1Cl | 45 to 59%
COC(=O)c1nc(-c2ccc(F)nc2)c(F)c(N)c1Cl | 0 to 29%

If you can, please state the reported pest or weed control at 70 g/ha value of COC(=O)c1nc(-c2ccc(Cl)c(F)c2OC)c(F)c(N)c1Cl .
45 to 59%

// same read-out, input: COC(=O)c1nc(-c2ccc(Cl)c(F)c2C)c(F)c(N)c1Cl
0 to 29%

// same read-out, input: COC(=O)c1nc(-c2ccc(Br)nc2)c(F)c(N)c1Cl
95 to 100%

// same read-out, input: Nc1c(F)c(-c2ccc(Cl)c(Cl)c2Cl)nc(C(=O)O)c1Cl
0 to 29%

// same read-out, input: Nc1cc(-c2ccc(Cl)nc2Cl)nc(C(=O)O)c1Cl
0 to 29%

// same read-out, input: COC(=O)c1nc(-c2ccc(C(F)(F)F)nc2)c(F)c(N)c1Cl
95 to 100%
